Where do these numbers come from? They come from the supplement of paper PMC12455559.

Test: melting temperature (DSF); higher = more thermostable
Short version: melting temperature at least 50 C is Fulfilled, less is Not fulfilled.

Illustrative cases are given below, each with its answer.
[
  {
    "sequence": "QYQKGPDPTTSSLERAGSFATRTISVSSLAASGFGGGRIYYPTASGSYGVIAVSPGYTGTASTMYFWGERLSSHGFVVIVIETNTLLDQPGSRANQLMAALNYTVSQGNSRTSALYGKVDGNRRGVAGHSMGGGGTLIAAADNASLKAAVPMAPWNLSSLSFRGIRVPTMIFGCQSDAIAPVNTHAVPFYNAIPSSTKKGYVEMRLDDHFCVMNGGGHYETLGKLGISWFKRFIDEDTRYSKFLCGTEYNATVRSTEVSDSKNNCPY [DP039]",
    "qualitativeLabel": "Not fulfilled"
  },
  {
    "sequence": "GQAAVPVAVAGTSAFAKGPDPTEQSIQAQRGPFATAQRTVPSEAGRAFNRGTVHYPTDTSHGTYGAVVVSPGFFGPEFSVAWYGSTLASHGFVVLTLETNFLFDQPDARATQLLAGLDWLAARSPVKDRVDPNRLAVMGHSMGGGGTLIAASRNPALKAAIPLTPWNTSPDFSTVTVPTLVLGTDNDTVAPVARHADPMYASLRDKPDEGYVKLRGDHFTPIRYTAAATRFIVPWLKRYVDEDTRYSRFLCPLPAPDATLVSFELRCPV [DP040]",
    "qualitativeLabel": "Not fulfilled"
  },
  {
    "sequence": "QTNPFQRGPAPTEATLEATRGPMATSQFTVSRPSGYRAGTVYYPTNAGGTVGGIVVVPGYTAYQSDINWWGPRLASWGFIVMTIDTNSTLDQPASRSRQQLAALDQLATLSRTSSSPIYNKLDTNRMGVMGWSMGGGGSLISTENRPSLKASIPFAPWNSTENFSSVTVPTLIIACQDDSIAPVYSHASPFYNSMTRNPKQFLEVRGEGHYCANSSNSDKDFLGKKGVAWMKRFMDNDTRFTTFACTNQESSLDVSDFRTARCS [DP032]",
    "qualitativeLabel": "Not fulfilled"
  },
  {
    "sequence": "NPYERGPDPTTASIEASRGSFATSTVTVSRLAVSGFGGGTIYYPTTTTAGTFGAISIAPGFTATQSSMAWLGPRLASQGFVVFTIDTITTSDQPDSRGRQLLASLDYLTQQSSVRSRIDSSRLGVVGHSMGGGGTLEAARSRPSLQAAVPLTGWNLTKNWSTLRVPTLVVGAQSDTIAPVASHSIPFYTSLPSTLDRAYLELRGASHFAPNTSNTTIAKYTLSWLKRFIDNDTRYEQFLCPIPSSSLSISDYRGNCPHNG [ESM167]",
    "qualitativeLabel": "Fulfilled"
  }
]

(Q) Is reported melting temperature greater than or equal to 50 C here: AQTSQVVTANPHQRGPDPTPETVRAPQGTFAFSTYSVPASVTGFGQGTIYYPDDTTQGTFAGVAISPGYTGPEASVAWLGPRLASRGFVVITITTNSRYDQPTSRGKQLLAALDYLTKQSPTEVRQRLDATRLGVMGHSMGGGGALYAAYKRPSLKAAVPLAPWNLIKNWSGIRVPTLVVAGTADKTASAGAHSLPFYSSMTGARERAFADVTGADHLTFVREDPVIGALAVSWLKRFLDDDTRYAPFITEPVGLSRFLCSCPYAG [DP007]
(A) Fulfilled
